tested on: SN40R2 cells; assay: Protocol B: SN40R2 CellTiter-Glo luminescent cell viability assay; conditions: read-out: SN40R2 % inhibition at 10
propertyLabel: inhibition at 10 µM (%)
# output: bare number, implied unit %

Worked set:
CC(O)(c1cc(F)c2c(c1)C(=O)N(Cc1ncc(Cl)cn1)[C@@]2(OCCO)c1ccc(Cl)cc1)C1(F)CCOCC1 (stereo partly drawn) [Example 578]	4
[2H]C([2H])(O)C1(C([2H])([2H])O[C@]2(c3ccc(Cl)cc3)c3c(F)cc(C(O)(CC)c4cn(C)cn4)cc3C(=O)N2Cc2ccc(C#N)cn2)CC1 (stereo partly drawn) [Example 439]	3
[2H]C([2H])(O)C1(C([2H])([2H])O[C@]2(c3ccc(Cl)cc3)c3c(F)cc(C(C)(C)C4(F)CCOCC4)cc3C(=O)N2Cc2ncc(Cl)cn2)CC1 [Example 447]	10
CC(O)(c1cc(F)c2c(c1)C(=O)N(Cc1ncc(Cl)cn1)[C@@]2(O[C@H]1CCOC1)c1ccc(Cl)cc1)C1(F)CCOCC1 (stereo partly drawn) [Example 493]	11
CCC(O)(c1cc(F)c2c(c1)C(=O)N(Cc1ncc(Cl)cc1O)[C@@]2(OCCO)c1ccc(Cl)cc1)c1cn(C)cn1 (stereo partly drawn) [Example 443]	3
CC(O)(c1cc(F)c2c(c1)C(=O)N(Cc1ncc(Cl)cn1)[C@@]2(OCC1(CO)CC1)c1ccc(Cl)cc1)[C@H]1CC[C@H](O)CC1 (stereo partly drawn) [Example 401]	6

The compound listed as CO[C@]1(c2ccc(Cl)cc2)c2c(F)cc(C(C)(O)C3CCN(CC(=O)O)CC3)cc2C(=O)N1Cc1ccc(Cl)cn1 (single isomer, unassigned) [Example 459] shows inhibition at 10 µM equal to 7

The compound listed as CCC(O)(c1cc(F)c2c(c1)C(=O)N(Cc1ncc(C#N)cn1)[C@@]2(OCC1(F)COC1)c1ccc(Cl)cc1)c1cn(C)cn1 (stereo partly drawn) [Example 470] shows inhibition at 10 µM equal to 3

The compound listed as CCC(O)(CN1CCNCC1)c1cc(F)c2c(c1)C(=O)N(Cc1ncc(Cl)cn1)[C@@]2(O[C@H]1CCOC1)c1ccc(Cl)cc1 (single isomer, unassigned) [Example 524] shows inhibition at 10 µM equal to 35

The compound listed as CCC(O)(CN(C)C)c1cc(F)c2c(c1)C(=O)N(Cc1ncc(Cl)cn1)[C@@]2(O[C@H]1CCOC1)c1ccc(Cl)cc1 (stereo partly drawn) [Example 528] shows inhibition at 10 µM equal to 10

The compound listed as [2H]C([2H])(c1ncc(Cl)cn1)N1C(=O)c2cc(C(C)(O)C3(F)CCOCC3)cc(F)c2[C@]1(O[C@H]1CCOC1)c1ccc(Cl)cc1 (stereo partly drawn) [Example 516] shows inhibition at 10 µM equal to 4

The compound listed as CC[C@](O)(c1cc(F)c2c(c1)C(=O)N(Cc1ncc(Cl)cn1)[C@@]2(OC)c1ccc(Cl)cc1)C1CCN(C)CC1 [Example 566] shows inhibition at 10 µM equal to 46

---

experiment: Repeat dose pharmacokinetics in monkeys; conditions: monkey, in vivo, sc, 3 mg/kg subcutaneously 3x weekly, day 15
Entries and their measured Cmax at 15 day follow.
# output: bare number, implied unit ng/mL

Nc1ncn([C@H]2C[C@H](O)[C@@H](CO)O2)c(=O)n1	28

Now consider the entry below.
The compound listed as Nc1ncn([C@H]2CC(OP(=O)(O)OC[C@H]3O[C@@H](n4cnc5c(=O)[nH]c(N)nc54)CC3O)[C@@H](CO)O2)c(=O)n1 (some centres unmarked) shows Cmax at 15 day equal to 181
